Readings of GI50 for the listed compounds
System: SW-620
experiment_notes: NCI tumour cell line growth inhibition, 48 h
Active and inactive are the calls of the source. Cut-off read from the data, not from the text of the source: active = GI50 up to about 1.1 µM and inactive = higher.
measure: GI50

1. O=C1NC(O)CCN1C1OC(CO)C(O)C1O (stereo not given) ... > 250 µM (inactive)
2. COc1c(Cl)c(Cl)c(OC)c2c1C(=O)C=CC2=O ... 16.8 µM (inactive)
3. Cc1ccc(S(=O)(=O)c2ccc(C)cc2[N+](=O)[O-])cc1 ... > 100 µM (inactive)
4. CCOC(=O)c1c(N2CCOCC2)[nH]c(=O)c(C(c2cccs2)c2c(O)c(C(=O)OCC)c(N3CCOCC3)[nH]c2=O)c1O ... > 100 µM (inactive)
5. COc1ccc(C(=O)C(c2ccc(OCc3ccccc3)cc2)c2ccc(OCc3ccccc3)cc2)cc1 ... > 100 µM (inactive)

====

System: NCI/ADR-RES
experiment_notes: NCI tumour cell line growth inhibition, 48 h
The source made the active and inactive calls. Rule as the data show it: active = GI50 up to about 1.1 µM and inactive = higher.
Outcomes: 1.0 for active, 0.0 for inactive

1) CC1N(O)C(c2ccccc2)C(c2ccccc2)=[N+]1[O-] (stereo unspecified) ... 0.0
2) COc1cc2cc(C(=O)N3CC(CCl)c4ccc(NO)cc43)[nH]c2c(OC)c1OC (stereo unspecified) ... 1.0
3) NC(Cc1cc(Br)c(O)c(Br)c1)C(=O)O (stereo unspecified) ... 0.0
4) COC(=O)C1(C(=O)OC)CC2=C(S(=O)(=O)c3ccccc3)C[C@H](S(=O)(=O)c3ccccc3)[C@H]2C1 ... 0.0
5) COc1ccccc1C(=O)c1c(NCc2ccccc2)c(=O)c1=O ... 0.0
6) Cn1ncc2c(Cl)ncnc21 ... 0.0
7) O=C1CCN2C(=N1)Sc1ccccc12 ... 0.0
8) CCN(CC)CC(O)CNc1ccc(NCC2CO2)c2c1C(=O)c1ccccc1C2=O (stereo unspecified) ... 1.0
9) COc1c(OC(C)C)cc2cc(O)c(C(=O)NC3Cc4ccc(c(Cl)n4)O[C@@H]4C=C5C#C/C(=C\C#CC6OC56C4OC4CC(C)(O)C(O)C(C)O4)C(OC4CC(O)C(N(C)C)C(C)O4)COC3=O)cc2c1OC (stereo partly specified) ... 0.0
10) COC1=C(C)C(=O)c2c(c(COC(N)=O)c3n2CC(OC(C)=O)C3OC(C)=O)C1=O (stereo unspecified) ... 1.0
11) CC(C)/C(Cl)=N\OC(=O)Nc1ccc(S(N)(=O)=O)cc1 ... 0.0
12) CN(Cc1cnc2nc(N)nc(N)c2n1)c1ccc(C(=O)NCCS(=O)(=O)O)cc1 ... 0.0
13) Cc1cccc(/C=N/NC(=S)N2CCCCCC2)n1 ... 1.0
14) CN(C(=O)Cc1cc(Cl)c(Cl)cc1NC(=O)CN)[C@H]1CCCC[C@@H]1N1CCCC1 ... 0.0
15) CCCCCCN1CCc2c(C)c(C#N)c3nc4ccccc4n3c21 ... 0.0
16) Cn1cc2c(=O)n3ncn(-c4ccc(Br)cc4)c3nc2n1 ... 0.0
17) COc1ccc(C=C2C(=O)NC(=S)NC2=O)c2ccccc12 ... 0.0
18) COc1ccccc1CNC1=Nc2ccncc2S(=O)(=O)N1c1ccccc1 ... 0.0
19) Cc1ccc(S(=O)(=O)N/N=C2\CCCCCCCCCCC2CN(C)C)cc1 (stereo unspecified) ... 0.0
20) COc1cc(C2C(Cl)C(=O)N2c2ccc(Br)cc2)cc(I)c1O (stereo unspecified) ... 0.0
21) COCC1OC([P+](c2ccccc2)(c2ccccc2)c2ccccc2)CC(OC)C1OC (stereo unspecified) ... 0.0
